# Study target: GRIP2_5, Q9C0E4
# Sequence (Q9C0E4 544-642): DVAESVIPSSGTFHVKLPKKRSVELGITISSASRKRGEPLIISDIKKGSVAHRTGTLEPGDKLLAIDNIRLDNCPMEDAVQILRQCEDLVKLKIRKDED
# Measurement notes: holdup assay
# Parameters: key: below the threshold = too weak to quantify, mostly under pKd 3.1 to 4
# Assay setup: plain residues with an end cap or a label only (N-terminal biotin on a linker: ado-ado)
Value type: pKd

Known pKd results, listed for orientation:
Query block: What pKd value was documented for this binder, SKENVQETQI [LRRC4B, Q9NT99] ?
Result block: below the threshold

Query block: And then VRNLPESEEL [MYOZ3, Q8TDC0] , what is it?
Result block: below the threshold

Query block: What do you have for KKAPTNEFYA [SDC4, P31431] ?
Result block: below the threshold

Query block: Quick one: YNNCLEILRV [DCAF7, P61962]
Result block: below the threshold

Query block: Check LPAHHNATRL [SLC34A1, Q06495;Q06495-1] too.
Result block: below the threshold

More entries:
Query block: Give its pKd value. Item: QSPANIYYKV [EFNB1, P52799]
Result block: below the threshold

Query block: Now this one: AKPSRISTVV [IQSEC2, Q5JU85]
Result block: below the threshold

Query block: Would you kindly repeat that for TASPAKETSF [SLC2A7, Q6PXP3] ?
Result block: below the threshold

Query block: Can you check KSGKQTMLVV [TRIM29, Q14134] next?
Result block: 3.59

Query block: Same again, this time with QMNQTLPVQV [EPHB3, P54753]
Result block: below the threshold

Query block: Next up: RRRESYSTTV [EVI5, O60447]
Result block: below the threshold

Query block: Then this binder: EKKTLIGIKL [GOT1L1, Q8NHS2]
Result block: below the threshold

Query block: Check TACCHSETVV [TGFA, P01135] too.
Result block: below the threshold

Query block: Let us now turn to LPHPHSTTRV [NLGN2, Q8NFZ4]
Result block: below the threshold
